- Tested on: HEK-293T
- PROTOCOL_SUMMARY: Multiplex assay against HEK293T
- Assay type: toxicity, cell-based
- CONDITION: human, 48 h, 10 µM, compound concentration 10 uM, replicate 2
Please respond with reported Population Mitotic Cells (%) for every item in the list.
Numbers only here, please. The scale is %.

Value of measured Population Mitotic Cells (%) for the entry `OCCCNc1cc(-c2ccnc(Nc3cccc(Cl)c3)n2)ccn1` : 16

Value of measured Population Mitotic Cells (%) for the entry Cc1ccc(OCC(O)C(C)NC(C)C)c2c1CCC2.Cl (stereo unspecified) : 66

Value of measured Population Mitotic Cells (%) for the entry CN1C[C@H](C(=O)N[C@]2(C)O[C@@]3(O)[C@@H]4CCCN4C(=O)[C@H](Cc4ccccc4)N3C2=O)C[C@@H]2c3cccc4[nH]cc(c34)C[C@H]21.CS(=O)(=O)O [DIHYDROERGOTAMINE MESYLATE] : 68

Value of measured Population Mitotic Cells (%) for the entry `CC(F)(F)CN1CCOc2c(nn(-c3ccccc3Cl)c2-c2ccc(Cl)cc2)C1=O` : 65

Value of measured Population Mitotic Cells (%) for the entry `Cc1cc(=O)n(C)c2cc(N3C(=O)CC[C@H](NS(=O)(=O)CC(C)C)[C@H]3c3ccc(Cl)cc3)ccc12` : 33

Value of measured Population Mitotic Cells (%) for the entry `N[C@](CC1c2ccccc2Oc2ccccc21)(C(=O)O)[C@H]1C[C@@H]1C(=O)O` : 57
